molecular target: UniProtKB P30550; assay: BB2 Receptor Antagonistic Activity
Sequence (P30550 whole entry): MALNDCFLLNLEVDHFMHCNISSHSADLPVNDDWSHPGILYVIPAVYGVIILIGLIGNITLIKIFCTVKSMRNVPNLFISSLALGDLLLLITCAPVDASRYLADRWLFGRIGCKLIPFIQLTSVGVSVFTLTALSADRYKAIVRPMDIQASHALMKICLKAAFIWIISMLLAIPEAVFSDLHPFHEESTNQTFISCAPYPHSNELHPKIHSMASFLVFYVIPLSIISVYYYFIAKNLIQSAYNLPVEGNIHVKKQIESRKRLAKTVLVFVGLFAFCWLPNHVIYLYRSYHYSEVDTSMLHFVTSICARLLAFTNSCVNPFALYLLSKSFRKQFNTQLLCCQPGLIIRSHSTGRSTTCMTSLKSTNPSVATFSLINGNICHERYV
measured.parameter: IC50 (nM)
Just the number please, in nM, no unit attached.

Inquiry: Bench note: what IC50 did O=C(NCCc1ccccc1)[C@@H]1c2ccccc2C(=O)N([C@H](CO)c2ccccc2)[C@H]1c1ccc(Cl)cc1Cl [US10532048, Example 62] show?
Reply text: 18.3
